- TARGET_OR_SYSTEM: Glucocorticoid receptor (Homo sapiens, UniProt P04150)
- Sequence (P04150 whole entry): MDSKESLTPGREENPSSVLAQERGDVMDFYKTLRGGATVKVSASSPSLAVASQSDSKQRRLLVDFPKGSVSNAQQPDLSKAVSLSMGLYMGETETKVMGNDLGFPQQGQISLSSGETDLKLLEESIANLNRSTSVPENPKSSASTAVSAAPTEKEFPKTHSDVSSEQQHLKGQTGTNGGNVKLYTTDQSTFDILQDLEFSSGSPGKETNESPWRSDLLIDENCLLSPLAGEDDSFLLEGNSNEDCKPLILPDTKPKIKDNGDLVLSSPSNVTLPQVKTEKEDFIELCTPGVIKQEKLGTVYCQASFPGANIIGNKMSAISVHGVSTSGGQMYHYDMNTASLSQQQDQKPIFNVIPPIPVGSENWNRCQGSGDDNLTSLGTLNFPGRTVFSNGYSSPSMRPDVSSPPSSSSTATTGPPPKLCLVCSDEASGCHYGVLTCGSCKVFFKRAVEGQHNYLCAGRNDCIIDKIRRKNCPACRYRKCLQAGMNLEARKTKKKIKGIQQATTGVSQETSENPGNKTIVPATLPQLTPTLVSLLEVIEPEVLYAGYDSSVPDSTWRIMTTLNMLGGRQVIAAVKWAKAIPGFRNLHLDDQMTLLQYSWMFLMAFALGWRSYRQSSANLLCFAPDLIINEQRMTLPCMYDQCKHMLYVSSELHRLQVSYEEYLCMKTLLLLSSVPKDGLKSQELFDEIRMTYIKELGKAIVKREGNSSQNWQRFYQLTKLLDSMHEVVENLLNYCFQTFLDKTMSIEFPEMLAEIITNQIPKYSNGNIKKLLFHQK
- MEASUREMENT_DESCRIPTION: Agonist activity at GR in human A549 cells transfected with luciferase gene linked to MMTV promoter assessed as luciferase transactivation activity
- Format: functional, cell-based
METRIC: IC50 (nM)

COMPOUND	MEASURE_UNIT	IC50
Cc1cc(C)c(S(=O)(=O)N[C@@H](C)CNc2cc(C)cc3c2cnn3-c2cccc(N[C@@H](C)C(N)=O)c2)c(C)c1	nM	1.58
Cc1cc(NC[C@H](C)NS(=O)(=O)C2CC2)c2cnn(-c3cccc(C(=O)N[C@H](C)C(N)=O)c3)c2c1	nM	126
Cc1cc(NC[C@H](C)NS(=O)(=O)C(C)C)c2cnn(-c3cccc(C(=O)NC(C)C)c3)c2c1	nM	50.1

A = Cc1cc(C)c(S(=O)(=O)N[C@@H](C)CNc2cc(C)cc3c2cnn3-c2ccc(NC3CC3)cc2)c(C)c1
B = CNc1ccc(-n2ncc3c(NC[C@H](C)NS(=O)(=O)c4c(C)cc(C)cc4C)cc(C)cc32)cc1
C = Cc1cc(C)c(S(=O)(=O)N[C@@H](C)CNc2cc(C)cc3c2cnn3-c2cccc(NCC(N)=O)c2)c(C)c1
D = Cc1cc(NC[C@H](C)NS(=O)(=O)C2CC2)c2cnn(-c3cccc(C(=O)NC(C)C)c3)c2c1
E = CCCS(=O)(=O)N[C@@H](C)CNc1cc(C)cc2c1cnn2-c1cccc(C(=O)NC(C)C)c1
Exercise: List from greatest to least IC50. Provide the ranking by listing each label in its place in the requested order.
Solution: B, E, D, A, C

I = Cc1cc(C)c(S(=O)(=O)N[C@@H](C)CNc2cc(C)cc3c2cnn3-c2ccc(NC(C)C)cc2)c(C)c1
II = Cc1cc(C)c(S(=O)(=O)N[C@@H](C)CNc2cc(C)cc3c2cnn3-c2cccc(N3CCCC(CO)C3)c2)c(C)c1 (single isomer, unassigned; isomer 2)
Exercise: Of the two listed items, which has the higher IC50? First: I Second: II Your choice should be expressed through its label.
Solution: II
(II: 316 nM, I: 10 nM)

I = Cc1cc(NC[C@H](C)NS(=O)(=O)C2CC2)c2cnn(-c3cccc(C(=O)NCC(N)=O)c3)c2c1
II = Cc1cc(C)c(S(=O)(=O)N[C@@H](C)CNc2cc(C)cc3c2cnn3-c2ccc(C#N)cc2)c(C)c1
Exercise: Please indicate which has the smaller reported IC50: I , or II . Reply with the label of the item you choose.
Solution: II

---

- TARGET_OR_SYSTEM: Glucocorticoid receptor (Homo sapiens, UniProt P04150)
- MEASUREMENT_DESCRIPTION: Agonist activity at glucocorticoid receptor in human A549 cells by NF-kappaB transrepression assay
- Assay type: functional, cell-based
METRIC: IC50 (nM)

# count of solved cases: 6
MOLECULE	TARGET_OR_SYSTEM	MEASURE_UNIT	IC50
Cc1cc(C)c(S(=O)(=O)N[C@@H](C)CNc2cc(C)cc3c2cnn3-c2ccc(S(C)(=O)=O)cc2)c(C)c1	Glucocorticoid receptor (Homo sapiens, UniProt P04150)	nM	5.01
COc1ccc(-n2ncc3c(NC[C@H](C)NS(=O)(=O)c4c(C)cc(C)cc4C)cc(C)cc32)cc1	Glucocorticoid receptor (Homo sapiens, UniProt P04150)	nM	12.6
Cc1cc(C)c(S(=O)(=O)N[C@@H](C)CNc2cc(C)cc3c2cnn3-c2ccc(F)cc2)c(C)c1	Glucocorticoid receptor (Homo sapiens, UniProt P04150)	nM	1.26
Cc1cc(C)c(S(=O)(=O)N[C@@H](C)CNc2cc(C)cc3c2cnn3-c2cccc(NC3CC3)c2)c(C)c1	Glucocorticoid receptor (Homo sapiens, UniProt P04150)	nM	0.316
Cc1cc(C)c(S(=O)(=O)N[C@@H](C)CNc2cc(C)cc3c2cnn3-c2ccc(N[C@H](C)C(N)=O)cc2)c(C)c1	Glucocorticoid receptor (Homo sapiens, UniProt P04150)	nM	7.94
Cc1cc(NC[C@H](C)NS(=O)(=O)C2CC2)c2cnn(-c3cccc(C(=O)N[C@@H](C)C(N)=O)c3)c2c1	Glucocorticoid receptor (Homo sapiens, UniProt P04150)	nM	5.01

P = Cc1cc(C)c(S(=O)(=O)N[C@@H](C)CNc2cc(C)cc3c2cnn3-c2ccc(NC3CC3)cc2)c(C)c1
Q = Cc1cc(C)c(S(=O)(=O)N[C@@H](C)CNc2cc(C)cc3c2cnn3-c2cccc(N[C@H](C)C(N)=O)c2)c(C)c1
Exercise: Lower value of IC50 belongs to which: P or Q ? Could you answer with the label of the item you picked?
Solution: Q
(Q: 0.2 nM, P: 1.26 nM)

Each recorded value in this set is attributed to ChEMBL document CHEMBL1667843.
